Catalogue of IC50 readings, one per entry.
Tested on: A-375
Test: Antiproliferative activity against human A375 cells after 48 hrs by SRB assay
Assay type: functional, cell-based
Settings: A-375, 48 h
Enter your answer as a number in µM; do not include the unit.

These recorded examples may help you get a feel for the data.
compound: CCCCCCCCCCCCCCCCOC(=O)[C@@H]1CSC(c2ccc(NC(C)=O)cc2)N1 (mixture of isomers)
measurement_name: IC50
value_reported: 28
//
compound: CC(=O)Nc1ccc(C2N[C@H](C(=O)Nc3ccc(-c4ccccc4)cc3)CS2)cc1 (mixture of isomers)
measurement_name: IC50
value_reported: 6.2
//
compound: CCCCCCCCCCCCCCCCNC(=O)[C@@H]1CSC(c2cc(OC)c(OC)c(OC)c2)N1 (mixture of isomers)
measurement_name: IC50
value_reported: 1.4

Shifting focus to the compound that follows.
# lookup: IC50 of CCCCCCCCC/C=C/CCCCCCCNC(=O)[C@@H]1CSC(c2ccc(OC)c(OC)c2)N1 (mixture of isomers)
1.4
